Let's look at some compounds and their measured Pharmacophore torsion angle a(O1, O2, N2, C2).
Target: MASP-2 CCP2-SP (Homo sapiens (Human))
Experiment: MASP-2 co-crystallization, X-ray crystallography and structure analysis (H-bonds, van der Waals contacts)
Settings: Table A7-1; between pharmacophore elements of the bound compound
API doc: respond with a numeric literal and nothing else, no unit.

Use the examples below as a reference point.
C[C@H](NC(=O)[C@H]1C[C@@H](c2ccccc2)CCN1)C(=O)NCc1cc(Cl)ccc1O.Cl [1078_11]	136.21
C[C@H](NC(=O)[C@H]1C[C@@H](c2ccccc2)CCN1)C(=O)NCc1cc(Cl)ccc1O.Cl [1078_7]	144.61
C[C@H](NC(=O)[C@H]1C[C@@H](c2ccccc2)CCN1)C(=O)NCc1cc(Cl)ccc1O.Cl [1078_3]	132.95

-- ask Give the measured Pharmacophore torsion angle a(O1, O2, N2, C2) of C[C@H](NC(=O)[C@H]1C[C@@H](c2ccccc2)CCN1)C(=O)NCc1cc(Cl)ccc1O.Cl [1078_1] .
-- reply 138.25

====

Biological target: MASP-2 CCP2-SP (Homo sapiens (Human))
Test: MASP-2 co-crystallization, X-ray crystallography and structure analysis (H-bonds, van der Waals contacts)
Set-up: unit not given beside the values
Settings: Table A2-11
Structures can show the parent of a compound that is named as a salt.
REPORTED_PROPERTY: van der Waals contact distance, SER 654 C to compound atom
Number only, no unit.

Worked set:
C[C@H](NC(=O)[C@H]1C[C@H](Cc2ccccc2)CN1)C(=O)NCc1cnc2c(c1)c(Cl)cn2C [compound 1450, Dihydrochloride]	3.81
C[C@H](NC(=O)[C@@H](CCc1ccccc1)NCc1ccc(N2CCOCC2)cc1)C(=O)NCc1ccc(C(=N)N)cc1 [compound 1149]	3.68

-- ask # query: van der Waals contact distance, SER 654 C to compound atom of entry C[C@H](NC(=O)[C@H]1C[C@H](Cc2ccccc2)CN1)C(=O)NCc1cc(Cl)ccc1-n1cnnn1 [compound 1371, Hydrochloride]
-- reply 3.9

-- ask Suppose we examine the compound CC(=O)Nc1ccc(CCN[C@H](CCc2ccccc2)C(=O)N[C@@H](C)C(=O)NCc2ccc(C(=N)N)cc2)cc1 [compound 1345] ; what van der Waals contact distance, SER 654 C to compound atom value has been reported?
-- reply 3.84

====

Target: MASP-2 CCP2-SP (Homo sapiens (Human), UniProt O00187)
Sequence (O00187 445-686): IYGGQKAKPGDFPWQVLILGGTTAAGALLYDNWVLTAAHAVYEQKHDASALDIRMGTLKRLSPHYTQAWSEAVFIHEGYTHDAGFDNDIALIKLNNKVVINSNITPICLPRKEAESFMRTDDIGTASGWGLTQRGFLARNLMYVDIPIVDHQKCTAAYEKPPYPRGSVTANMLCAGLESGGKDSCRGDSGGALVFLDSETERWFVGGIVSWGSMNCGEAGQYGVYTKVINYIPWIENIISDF
Sequence (O00187 364-432 partner): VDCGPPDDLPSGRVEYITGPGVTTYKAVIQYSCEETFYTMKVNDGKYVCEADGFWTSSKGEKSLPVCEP
Assay: MASP-2 co-crystallization, X-ray crystallography and structure analysis (H-bonds, van der Waals contacts)
Conditions: Table A4-2; element N1
Examples of compounds with documented Ligand-pharmacophore element distance, pharmacophore element N1 follow.
Reply: number alone, nothing else.

Please review the following examples before continuing.
C[C@H](NC(=O)[C@H](N)CCCc1ccccc1)C(=O)NCc1ccc(C(=N)N)cc1.Cl.Cl [1042_1]	1.3
C[C@H](NC(=O)[C@H](N)CCc1ccccc1)C(=O)NCc1ccc(C(=N)N)cc1 [compound 1024]	1.74
C[C@H](NC(=O)[C@H](N)CCCc1ccccc1)C(=O)NCc1ccc(C(=N)N)cc1.Cl.Cl [1042_2]	1.61
N=C(N)c1ccc(CNC(=O)[C@@H]2CCN2C(=O)[C@H](NCC(=O)O)C2Cc3ccccc3C2)cc1 [compound 1129]	1.8
N=C(N)c1ccc(CNC(=O)[C@@H]2CCN2C(=O)[C@H]2Cc3ccccc3CN2)cc1 [compound 1034]	1.87

Kindly review the next compound as well.
-- ask What value of Ligand-pharmacophore element distance, pharmacophore element N1 has been reported for the following compound? O=c1oc(-c2ccccc2[N+](=O)[O-])nc2ccccc12 [compound 14]
-- reply 0
